Molecular target: T1, human IL-11 (human, UniProt P20809 22-199)
T1 construct: bought from Invigate; also called hIL-11; hIL11
T1 sequence: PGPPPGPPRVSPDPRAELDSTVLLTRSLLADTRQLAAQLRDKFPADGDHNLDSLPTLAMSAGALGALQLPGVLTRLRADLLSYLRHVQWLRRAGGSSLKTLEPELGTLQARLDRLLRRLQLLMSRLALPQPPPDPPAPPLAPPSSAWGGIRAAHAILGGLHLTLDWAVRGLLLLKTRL
Experiment: SPR, antibody captured, IL-11 as analyte
I'd be grateful if you could share measured Kd for these entries.
Give bare numbers, in nM.

>  <Binder>
TPP-27160 (antibody, V domains shown) VH: EVQLLESGGGLVQPGGSLRLSCAASGFTFSSYGMHWVRQAPGKGLEWVAVISYDGSYKYYADSVKGRFTISRDNSKNTLYLQMNSLRAEDTAVYYCAAGVPDYWGQGTLVTVSS VL: QSVLTQPPSASGTPGQRVTISCSGSSSNIGSGYDVHWYQQLPGTAPKLLIYDNNERPSGVPDRFSGSKSGTSASLAISGLRSEDEADYYCAAWDDSLSGPVFGGGTKLTVL

>  <Test Result>
180

$$$$

As a next step, examine the binder that follows.
Request: Find the recorded Kd belonging to TPP-27157 (antibody, V domains shown) VH: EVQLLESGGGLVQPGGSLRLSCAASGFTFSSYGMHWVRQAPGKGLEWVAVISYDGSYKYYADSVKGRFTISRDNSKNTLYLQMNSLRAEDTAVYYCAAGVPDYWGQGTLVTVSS VL: QSVLTQPPSASGTPGQRVTISCTGSSSNIGAGYDVHWYQQLPGTAPKLLIYSNNERPSGVPDRFSGSKSGTSASLAISGLRSEDEADYYCAAWDDSLSGPVFGGGTKLTVL and report it.
Response: 5.1
